# TESTED TARGET: folate receptor alpha (FRα) on cells (human, UniProt P15328 25-234)
# Sequence (P15328 25-234): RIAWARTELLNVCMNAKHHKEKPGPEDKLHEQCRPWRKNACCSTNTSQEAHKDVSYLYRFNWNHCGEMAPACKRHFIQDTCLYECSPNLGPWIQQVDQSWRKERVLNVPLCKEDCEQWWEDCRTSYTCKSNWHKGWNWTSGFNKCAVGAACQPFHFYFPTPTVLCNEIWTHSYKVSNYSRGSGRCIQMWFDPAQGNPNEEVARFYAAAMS
# PROTOCOL NOTES: cell-based or functional assay
PROPERTY LABEL: IC50, in vitro cytotoxicity (WST-8, 5 days), SKOV-6 cells, ADC

For the binder conjugate 17i (antibody, human IgG1, kappa, V domains shown, thio-peptide-maytansinoid 14i linked through sulfo-GMBS to antibody amines (Example 4)) VH: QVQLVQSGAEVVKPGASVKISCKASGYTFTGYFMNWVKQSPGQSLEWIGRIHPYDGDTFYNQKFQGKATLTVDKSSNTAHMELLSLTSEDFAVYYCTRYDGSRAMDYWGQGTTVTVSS VL: DIVLTQSPLSLAVSLGQPAIISCKASQSVSFAGTSLMHWYHQKPGQQPRLLIYRASNLEAGVPDRFSGSGSKTDFTLTISPVEAEDAATYYCQQSREYPYTFGGGTKLEIKR , give its measured IC50, in vitro cytotoxicity (WST-8, 5 days), SKOV-6 cells, ADC value.
> 10 nM

Data credit: patent US20180296694A1
